Consider the following compounds and their measured GI50 readings.
test system: HOP-92; test: NCI tumour cell line growth inhibition, 48 h
Activity calls are given as the source filed them. No stated cut-off is given here; in the data, active = GI50 up to about 1.1 µM and inactive = higher.

In [3]: df
Out[3]:
                        compound  quantity_name           measured
0  NS(=O)(=O)OCCCCCCCOS(N)(=O)=O           GI50  215 µM (inactive)

Name the reported GI50 value associated with the compound CO[C@@H]1C=C[C@@]23c4cc5c(cc4C(=O)O[C@H]2CN(C)[C@H]3C1)OCO5
> 100 µM (inactive)

Moving on to the next compound: CC(C)(C)OC(=O)C1/C(=C/CO)CN1C(=O)OC(C)(C)C (stereo unspecified)
> 100 µM (inactive)

Entry to check: C[N+](C)(N)Cc1nc(-c2ccc(Cl)cc2)no1
> 100 µM (inactive)

Another compound: COc1ccc(C2=NOC(N)(c3ccc(OC)cc3)C2)cc1 (stereo unspecified)
> 100 µM (inactive)

Now this one: COc1cc2c(cc1OC)C(CC(=O)NN=C(C)C)NCC2 (stereo unspecified)
> 100 µM (inactive)

Try Cc1ccc2c3c1O[C@H]1c4nc5ccccc5cc4C[C@@]4(O)[C@@H](C2)N(CC2CC2)CC[C@]314 next.
19.9 µM (inactive)

Entry CC(NC(=O)c1ccccc1)NC(=O)C(C)C(=O)Nc1ccccc1 (stereo unspecified) please
49.1 µM (inactive)

Field entry: O=c1c2cc([N+](=O)[O-])cnc2sn1-c1ccc(Oc2ccccc2)cc1
23 µM (inactive)

# repeat for Cc1cc(-c2nc3cc(F)ccc3s2)ccc1NC(=O)C(C)N (stereo unspecified)
3.97 µM (inactive)

What do you get for CC(O)=C1C(=O)CCC1=O ?
> 100 µM (inactive)

----------
system: UACC-62; test: NCI tumour cell line growth inhibition, 48 h
Active and inactive are the calls of the source. Cut-off read from the data, not from the text of the source: active = GI50 up to about 1.1 µM and inactive = higher.
quantity.name: GI50

Examples from the recorded data:
>>> df
                                   molecule  target_desc             measured
0  O=C1C=CC=C/C1=C1\N=C(c2ccccc2OCC(=O)c2ccc(Br)cc2)SS1      UACC-62   23.1 µM (inactive)
1  CC1(C)C=C(/C=N/Nc2ccc([N+](=O)[O-])cc2)C(C#N)=C(O)C1(C#N)C#N      UACC-62  > 100 µM (inactive)
2          Oc1ccc2ccccc2c1/N=N/c1ccc(Cl)cc1      UACC-62  > 100 µM (inactive)
3  C=[N+](CNC(=O)CNC(=O)C(Cc1ccccc1)NC(=O)OC(C)(C)C)C(=O)CNC(=O)C(Cc1ccccc1)NC(=O)OC(C)(C)C (stereo not given)      UACC-62  > 100 µM (inactive)

Let us move to another entry and its GI50.
Entry CCN(CC)P(=O)(c1ccc2c(c1)OCCOCCOCCOCCO2)N(CC)CC has what GI50?
> 100 µM (inactive)

----------
system: COLO 205; assay: NCI tumour cell line growth inhibition, 48 h
Activity calls are given as the source filed them. Rule as the data show it: active = GI50 up to about 1.1 µM and inactive = higher.
quantity.name: GI50

Known results for molecules:
                                   molecule  target_desc             measured
0       SC1=NNC2(C(S)=N1)c1ccccc1-c1ccccc12     COLO 205   > 10 µM (inactive)
1             O=C1N=C2Sc3ccc4ccccc4c3N2C1=O     COLO 205   29.6 µM (inactive)
2  COc1ccccc1OCC(COC(=O)Nc1ccc(C)cc1)OC(=O)Nc1ccc(C)cc1 (configuration not stated)     COLO 205   18.2 µM (inactive)
3  O=C(CCC(C(=O)OCc1ccccc1)C(=O)OCc1ccccc1)Nc1ccc(OCc2ccccc2)cc1     COLO 205     41 µM (inactive)
4  COC(=O)[C@]1(Cc2ccc3ccccc3c2)CCCCCCN1C(=O)c1ccccc1     COLO 205   11.4 µM (inactive)
5                 COc1nc(C#CCCCC#N)nc(OC)n1     COLO 205   29.9 µM (inactive)
6  CCN(CC)P(=O)(c1ccc2c(c1)OCCOCCOCCOCCO2)N(CC)CC     COLO 205  > 100 µM (inactive)
7  [O-][n+]1c2cc(CBr)c(CBr)cc2[n+]([O-])c2c(O)cccc21     COLO 205   1.77 µM (inactive)
8  O=C1C=CC=C/C1=C1\N=C(c2ccccc2OCC(=O)c2ccc(Br)cc2)SS1     COLO 205  > 100 µM (inactive)
9  COC(=O)C(=Cc1cc(OC)c(OC)c(OC)c1-c1cc2c(cc1C(C)=O)OCO2)C(=O)OC     COLO 205   35.3 µM (inactive)

Recorded GI50 for C[C@]12CCC(O)CC1=CC[C@@H]1[C@@H]2CC[C@]2(C)C(O)[C@H](n3ccnc3)C[C@@H]12 (some centres not stated) , please?
47.4 µM (inactive)

Same thing, different molecule: CCCCCCCCCCCCCC(=O)OCC1OC(OC)C(NC(=O)N(CCCl)N=O)C(O)C1O (configuration not stated)
21.9 µM (inactive)

Now try CCCCCCCCCC1CC(=O)OC23CCCC(=O)C12O3 (configuration not stated) .
> 100 µM (inactive)
